# measured.target: GABA-A receptor; anion channel (Rattus norvegicus) (UniProt O09028+P15431+P18506+P18508+P19969+P20236+P23574+P23576+P28471+P28473+P30191+P62813+P63079+P63138+Q91ZM7+Q9ES14)
# assay.notes: Ratio of IC50 (no GABA) to IC50 (GABA) was measured as GABA Shift (GS)
# Assay type: protein-complex assay
GABA shift of 2 or higher: true (1). Under 2: false (0).

>>> label_class("O=C(Nc1ccncc1)c1c(O)ccn2c1nc1ccccc12")
"false (0)"
>>> label_class("Cc1cc(N(C)C)ccc1NC(=O)C1=C(O)CCn2c1nc1ccccc12")
"true (1)"
>>> label_class("Cc1cnccc1NC(=O)C1=C(O)CCn2c1nc1ccccc12")
"false (0)"
>>> label_class("CCN1C2=C(C(=O)Nc3ccncc3)C(=O)CCN2c2ccccc21")
"true (1)"
>>> label_class("O=C(Nc1ccncn1)C1=C(O)CCn2c1nc1ccccc12")
"false (0)"
>>> label_class("O=C(Nc1ccncc1Cl)C1=C(O)CCn2c1nc1ccccc12")
"true (1)"
>>> label_class("CN(C)c1ccc(NC(=O)C2=C(O)CCn3c2nc2ccccc23)cc1")
"false (0)"
>>> label_class("O=C(NCc1ccncc1)C1=C(O)CCn2c1nc1ccccc12")
"false (0)"
>>> label_class("Nc1ccc(NC(=O)C2=C(O)CCn3c2nc2ccccc23)cc1")
"true (1)"
>>> label_class("O=C(Nc1cnccn1)C1=C(O)CCn2c1nc1ccccc12")
"false (0)"
>>> label_class("O=C(Nc1ccncc1F)C1=C(O)CCn2c1nc1ccccc12")
"true (1)"

###

# measured.target: GABA-A receptor; anion channel
# assay.notes: Binding affinity against the BZD site of the Gamma-aminobutyric acid A receptor in rat cerebral cortex using radioligand ([3H]flunitrazepam) assay in the absence of Gamma-aminobutyric acid
# Type: tissue-based
pIC50: −log10 of the molar value.
endpoint.name: pIC50

>>> meas_value("O=C(Nc1ccncn1)C1=C(O)CCn2c1nc1ccccc12")
6.32
>>> meas_value("O=C(Nc1ncccn1)C1=C(O)CCn2c1nc1ccccc12")
7.27
>>> meas_value("O=C(Nc1ccncc1F)C1=C(O)CCn2c1nc1ccccc12")
7.28
>>> meas_value("Cc1cnccc1NC(=O)C1=C(O)CCn2c1nc1ccccc12")
5.15
>>> meas_value("Cc1cc(N(C)C)ccc1NC(=O)C1=C(O)CCn2c1nc1ccccc12")
5.40
>>> meas_value("Nc1ccc(NC(=O)C2=C(O)CCn3c2nc2ccccc23)cc1")
4.89
>>> meas_value("O=C(NCc1ccncc1)C1=C(O)CCn2c1nc1ccccc12")
7.19
>>> meas_value("O=C(Nc1ccncc1)C1=C(O)CCn2c1nc1ccccc12")
6.80
>>> meas_value("O=C(Nc1ccncc1Cl)C1=C(O)CCn2c1nc1ccccc12")
6.66
>>> meas_value("C[n+]1ccc(NC(=O)C2=C(O)CCn3c2nc2ccccc23)cc1")
5.20
>>> meas_value("O=C(Nc1ccccn1)C1=C(O)CCn2c1nc1ccccc12")
7.23
>>> meas_value("CN(C)c1ccc(NC(=O)C2=C(O)CCn3c2nc2ccccc23)c(F)c1")
6.92
>>> meas_value("Nc1ccccc1NC(=O)C1=C(O)CCn2c1nc1ccccc12")
7.30
>>> meas_value("CN(C)c1cccc(NC(=O)C2=C(O)CCn3c2nc2ccccc23)c1")
7.43
>>> meas_value("O=C(NCc1cccnc1)C1=C(O)CCn2c1nc1ccccc12")
6.82
>>> meas_value("O=C(Nc1ccc(O)cc1)C1=C(O)CCn2c1nc1ccccc12")
7.34
>>> meas_value("O=C(Nc1cccnc1)C1=C(O)CCn2c1nc1ccccc12")
7.29
>>> meas_value("O=C(Nc1cnccn1)C1=C(O)CCn2c1nc1ccccc12")
6.44
>>> meas_value("CCN1C2=C(C(=O)Nc3ccncc3)C(=O)CCN2c2ccccc21")
7.10
>>> meas_value("O=C(Nc1ccncc1)c1c(O)ccn2c1nc1ccccc12")
6.59
